Where do the numbers come from? From the supplement of paper PMC5998384.

- System: HeLa Kyoto;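 further: synchronized HeLa Kyoto cells, proteins quantified by TMT10plex mass spectrometry, three biological replicates, mitosis taken 0.5 h after nocodazole release, G1/S directly after double thymidine block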
- protocol description: thermal stability score vs G1/S (z-score of summed log2 fold changes over temperatures); higher = more thermally stable than in G1/S
- test conditions: cell cycle stage: early G1 (4.5 h after nocodazole release)
quantity: thermal stability score

[[record]]
chain_sequence = "MASMAAAIAASRSAVMSGNRPLDDRERKRFTYFSSLSPMARKIMQDKEKIREKYGPEWARLPPAQQDEIIDRCLVGPRAPAPRDPGDSEELTRFPGLRGPTGQKVVRFGDEDLTWQDEHSAPFSWETKSQMEFSISALSIQEPSNGTAASEPRPLSKASQGSQALKSSQGSRSSSLDALGPTRKEEEASFWKINAERSRGEGPEAEFQSLTPSQIKSMEKGEKVLPPCYRQEPAPKDREAKVERPSTLRQEQRPLPNVSTERERPQPVQAFSSALHEAAPSQLEGKLPSPDVRQDDGEDTLFSEPKFAQVSSSNVVLKTGFDFLDNW [C1ORF198]"
quantity = "thermal stability score"
reported_value = -0.542

[[record]]
chain_sequence = "MSEVKSRKKSGPKGAPAAEPGKRSEGGKTPVARSSGGGGWADPRTCLSLLSLGTCLGLAWFVFQQSEKFAKVENQYQLLKLETNEFQQLQSKISLISEKWQKSEAIMEQLKSFQIIAHLKRLQEEINEVKTWSNRITEKQDILNNSLTTLSQDITKVDQSTTSMAKDVGLKITSVKTDIRRISGLVTDVISLTDSVQELENKIEKVEKNTVKNIGDLLSSSIDRTATLRKTASENSQRINSVKKTLTELKSDFDKHTDRFLSLEGDRAKVLKTVTFANDLKPKVYNLKKDFSRLEPLVNDLTLRIGRLVTDLLQREKEIAFLSEKISNLTIVQAEIKDIKDEIAHISDMN [IKBIP]"
quantity = "thermal stability score"
reported_value = 2.64

[[record]]
chain_sequence = "MTDDKDVLRDVWFGRIPTCFTLYQDEITEREAEPYYLLLPRVSYLTLVTDKVKKHFQKVMRQEDISEIWFEYEGTPLKWHYPIGLLFDLLASSSALPWNITVHFKSFPEKDLLHCPSKDAIEAHFMSCMKEADALKHKSQVINEMQKKDHKQLWMGLQNDRFDQFWAINRKLMEYPAEENGFRYIPFRIYQTTTERPFIQKLFRPVAADGQLHTLGDLLKEVCPSAIDPEDGEKKNQVMIHGIEPMLETPLQWLSEHLSYPDNFLHISIIPQPTD [ATG5]"
quantity = "thermal stability score"
reported_value = -0.587

[[record]]
chain_sequence = "MREYKLVVLGSGGVGKSALTVQFVQGIFVEKYDPTIEDSYRKQVEVDAQQCMLEILDTAGTEQFTAMRDLYMKNGQGFALVYSITAQSTFNDLQDLREQILRVKDTDDVPMILVGNKCDLEDERVVGKEQGQNLARQWNNCAFLESSAKSKINVNEIFYDLVRQINRKTPVPGKARKKSSCQLL [RAP1B]"
quantity = "thermal stability score"
reported_value = -0.701

[[record]]
chain_sequence = "MASSSGSKAEFIVGGKYKLVRKIGSGSFGDIYLAINITNGEEVAVKLESQKARHPQLLYESKLYKILQGGVGIPHIRWYGQEKDYNVLVMDLLGPSLEDLFNFCSRRFTMKTVLMLADQMISRIEYVHTKNFIHRDIKPDNFLMGIGRHCNKLFLIDFGLAKKYRDNRTRQHIPYREDKNLTGTARYASINAHLGIEQSRRDDMESLGYVLMYFNRTSLPWQGLKAATKKQKYEKISEKKMSTPVEVLCKGFPAEFAMYLNYCRGLRFEEAPDYMYLRQLFRILFRTLNHQYDYTFDWTMLKQKAAQQAASSSGQGQQAQTPTGKQTDKTKSNMKGF [CSNK1A1]"
quantity = "thermal stability score"
reported_value = 1.17

[[record]]
chain_sequence = "MRGKTFRFEMQRDLVSFPLSPAVRVKLVSAGFQTAEELLEVKPSELSKEVGISKAEALETLQIIRRECLTNKPRYAGTSESHKKCTALELLEQEHTQGFIITFCSALDDILGGGVPLMKTTEICGAPGVGKTQLCMQLAVDVQIPECFGGVAGEAVFIDTEGSFMVDRVVDLATACIQHLQLIAEKHKGEEHRKALEDFTLDNILSHIYYFRCRDYTELLAQVYLLPDFLSEHSKVRLVIVDGIAFPFRHDLDDLSLRTRLLNGLAQQMISLANNHRLAVILTNQMTTKIDRNQALLVPALGESWGHAATIRLIFHWDRKQRLATLYKSPSQKECTVLFQIKPQGFRDTVVTSACSLQTEGSLSTRKRSRDPEEEL [RAD51C]"
quantity = "thermal stability score"
reported_value = -0.288

[[record]]
chain_sequence = "MVLLKEYRVILPVSVDEYQVGQLYSVAEASKNETGGGEGVEVLVNEPYEKDGEKGQYTHKIYHLQSKVPTFVRMLAPEGALNIHEKAWNAYPYCRTVITNEYMKEDFLIKIETWHKPDLGTQENVHKLEPEAWKHVEAVYIDIADRSQVLSKDYKAEEDPAKFKSIKTGRGPLGPNWKQELVNQKDCPYMCAYKLVTVKFKWWGLQNKVENFIHKQERRLFTNFHRQLFCWLDKWVDLTMDDIRRMEEETKRQLDEMRQKDPVKGMTADD [PITPNA]"
quantity = "thermal stability score"
reported_value = -1.26

[[record]]
chain_sequence = "MGRIFLDHIGGTRLFSCANCDTILTNRSELISTRFTGATGRAFLFNKVVNLQYSEVQDRVMLTGRHMVRDVSCKNCNSKLGWIYEFATEDSQRYKEGRVILERALVRESEGFEEHVPSDNS [YPEL5]"
quantity = "thermal stability score"
reported_value = 0.121

[[record]]
chain_sequence = "MAAAAELSLLEKSLGLSKGNKYSAQGERQIPVLQTNNGPSLTGLTTIAAHLVKQANKEYLLGSTAEEKAIVQQWLEYRVTQVDGHSSKNDIHTLLKDLNSYLEDKVYLTGYNFTLADILLYYGLHRFIVDLTVQEKEKYLNVSRWFCHIQHYPGIRQHLSSVVFIKNRLYTNSH [EEF1E1]"
quantity = "thermal stability score"
reported_value = -0.612

[[record]]
chain_sequence = "MLAVHFDKPGGPENLYVKEVAKPSPGEGEVLLKVAASALNRADLMQRQGQYDPPPGASNILGLEASGHVAELGPGCQGHWKIGDTAMALLPGGGQAQYVTVPEGLLMPIPEGLTLTQAAAIPEAWLTAFQLLHLVGNVQAGDYVLIHAGLSGVGTAAIQLTRMAGAIPLVTAGSQKKLQMAEKLGAAAGFNYKKEDFSEATLKFTKGAGVNLILDCIGGSYWEKNVNCLALDGRWVLYGLMGGGDINGPLFSKLLFKRGSLITSLLRSRDNKYKQMLVNAFTEQILPHFSTEGPQRLLPVLDRIYPVTEIQEAHKYMEANKNIGKIVLELPQ [TP53I3]"
quantity = "thermal stability score"
reported_value = -2.64

